growth values by entry
- Test system: OVCAR-8 ovarian
- Test method notes: NCI-60 one-dose screen, 48 h (100 = growth as untreated, 0 = no growth, -100 = all killed)
- Recorded conditions: 10 µM unless noted
This is part of a sample that, as a whole, favours compounds with a hit. Of some 83,000 tested, about 20% had one in any assay.
Number in %, nothing else.

- Molecule: "Clc1ccc2nc(Cl)c3ccccc3c2c1"
  Unit abbreviation: "%"
  growth: 50.8

Query string: Look up growth for this molecule: "CN=C(NC)N/N=C(C)\C=N\NC(=NC)NC"
Result string: 102

###

- Tested on: MCF7 breast
- Test method notes: NCI-60 one-dose screen, 48 h
- Recorded conditions: 10 µM unless noted
Compounds without any hit were thinned out: in the full panel of roughly 83,000, 20% have a hit. Activity calls are given as the source filed them. Rule for the calls: active = growth percent below 10; inactive = the rest.
Answer with one of the outcomes given here: True for active, False for inactive

Here's what some known entries look like.
- Compound: "CC(=O)Oc1ccc(C2OC(c3ccc4ccccc4c3OC(C)=O)=NN2C(C)=O)c(OC(C)=O)c1 (stereo unspecified)"
  Tested on: "MCF7 breast"
  Class: "False"
- Compound: "CC(=O)Oc1ccc(C23c4ccccc4C2(OC(C)=O)c2cc(OC(C)=O)ccc23)cc1 (stereo unspecified)"
  Tested on: "MCF7 breast"
  Class: "False"
- Compound: "N#Cc1cccc(/C=C(/C(=O)c2ccccc2)c2ccccc2)c1"
  Tested on: "MCF7 breast"
  Class: "True"

Query string: State the result this test recorded for CCC(CCC(C)C1CCC2C3CC=C4CC(O)CCC4(C)C3CCC12C)C(C)C (stereo unspecified) (tested in a mixture with another compound) .
Result string: False
